measured on: NR1/NR2D (Homo sapiens, UniProt O15399+Q05586)
Sequence (O15399 28-1336, species assumed, other chains not shown): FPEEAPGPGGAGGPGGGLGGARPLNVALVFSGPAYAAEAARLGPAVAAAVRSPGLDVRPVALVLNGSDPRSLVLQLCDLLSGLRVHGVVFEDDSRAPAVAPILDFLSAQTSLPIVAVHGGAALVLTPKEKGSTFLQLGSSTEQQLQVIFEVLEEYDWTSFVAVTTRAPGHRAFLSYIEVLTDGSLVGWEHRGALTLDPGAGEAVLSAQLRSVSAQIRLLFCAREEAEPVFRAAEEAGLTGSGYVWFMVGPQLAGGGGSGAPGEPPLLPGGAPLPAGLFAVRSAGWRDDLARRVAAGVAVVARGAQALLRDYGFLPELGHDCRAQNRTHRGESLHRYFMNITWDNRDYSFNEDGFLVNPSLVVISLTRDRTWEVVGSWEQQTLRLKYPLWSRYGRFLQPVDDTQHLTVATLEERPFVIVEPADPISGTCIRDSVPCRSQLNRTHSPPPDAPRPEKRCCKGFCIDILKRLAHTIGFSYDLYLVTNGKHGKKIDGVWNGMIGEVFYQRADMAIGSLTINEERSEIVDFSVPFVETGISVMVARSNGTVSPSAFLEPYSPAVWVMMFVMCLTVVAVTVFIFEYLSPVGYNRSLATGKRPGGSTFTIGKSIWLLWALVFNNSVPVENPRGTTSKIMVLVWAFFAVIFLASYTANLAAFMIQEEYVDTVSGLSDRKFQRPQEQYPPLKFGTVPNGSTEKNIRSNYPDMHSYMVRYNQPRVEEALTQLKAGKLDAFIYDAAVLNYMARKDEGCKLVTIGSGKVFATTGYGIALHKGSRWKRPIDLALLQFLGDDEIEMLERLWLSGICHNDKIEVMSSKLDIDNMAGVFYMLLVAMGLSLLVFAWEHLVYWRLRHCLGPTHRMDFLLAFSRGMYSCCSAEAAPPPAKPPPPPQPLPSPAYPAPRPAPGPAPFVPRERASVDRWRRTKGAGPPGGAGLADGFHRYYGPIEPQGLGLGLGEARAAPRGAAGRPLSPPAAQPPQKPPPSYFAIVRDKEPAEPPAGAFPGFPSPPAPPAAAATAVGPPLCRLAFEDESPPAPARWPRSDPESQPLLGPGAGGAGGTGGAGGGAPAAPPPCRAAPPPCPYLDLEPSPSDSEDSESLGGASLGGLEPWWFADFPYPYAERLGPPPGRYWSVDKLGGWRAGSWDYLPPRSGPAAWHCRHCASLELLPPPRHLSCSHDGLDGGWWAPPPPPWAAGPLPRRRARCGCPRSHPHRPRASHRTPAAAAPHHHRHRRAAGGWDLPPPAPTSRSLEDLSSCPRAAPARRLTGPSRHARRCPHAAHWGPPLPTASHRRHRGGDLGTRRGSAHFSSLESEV
experiment notes: Two electrode voltage clamp, Xenopus laevis oocytes expressing NR1/NR2D
parameter measured: IC50 (µM)
A number alone suffices; assume µM.

Fill in IC50 for COc1ccc(OCC2c3cc(OC)c(OC)cc3CCN2C(=O)c2cccc(OC)c2)cc1 (stereo not shown) [compound 1392] tested with NR1/NR2D (Homo sapiens, UniProt O15399+Q05586). 12

State IC50 on NR1/NR2D (Homo sapiens, UniProt O15399+Q05586). Entry: COc1ccc(OCC2c3c(cc(OC)cc3OC)CCN2C(=O)c2ccccc2)cc1 (stereo not shown) [1180-19] 9

Retrieve IC50 on NR1/NR2D (Homo sapiens, UniProt O15399+Q05586); query COc1ccc(OCC2c3cc(OC)c(OC)cc3CCN2C(=O)c2ccc(Cl)c(Cl)c2)cc1 (stereo not shown) [1180-10] 8

Look up and report measured IC50 (NR1/NR2D (Homo sapiens, UniProt O15399+Q05586)) for the following molecule: COc1ccc(OCC2c3cc(OC)c(OC)cc3CCN2C(=O)c2ccccc2)cc1 (stereo not shown) [compound 1180] 11

---

measured on: NR1/NR2C (Homo sapiens, UniProt Q05586+Q14957)
Construct: expressed in transfected cells; host or cells: Xenopus laevis oocytes
experiment notes: Two electrode voltage clamp, Xenopus laevis oocytes expressing NR1/NR2C
Assay type: cell-based
run conditions: fitted to composite concentration-effect data; read-out: 2C IC50
pIC50: −log10 of the molar value.
Answer Not fulfilled if pIC50 is under 5, and Fulfilled if it is 5 or more.

Please indicate if the recorded pIC50 for CCOc1ccc(-c2csc(NC(=O)c3ccc(C(C)(C)C)cc3)c2C(=O)O)cc1 [compound 1423] meets or exceeds 5. Not fulfilled

More entries:
Test whether the molecule CCc1cc(C(=O)O)c(NC(=O)c2ccc(C(C)(C)C)cc2)s1 [compound 1421] records pIC50 of 5 or higher. Not fulfilled

Test whether the molecule COc1ccc(OCC2c3cc(OC)c(OC)cc3CCN2C(=O)c2cccc(I)c2)cc1 (centres unmarked) [1180-11] records pIC50 of 5 or higher. Not fulfilled

---

Attribute: activity at 100 µM
measured on: NR1/NR2A (Homo sapiens, UniProt Q12879)
Construct: expressed in transfected cells; host or cells: Xenopus laevis oocytes
Sequence (Q12879 23-1464, species assumed, other chains not shown): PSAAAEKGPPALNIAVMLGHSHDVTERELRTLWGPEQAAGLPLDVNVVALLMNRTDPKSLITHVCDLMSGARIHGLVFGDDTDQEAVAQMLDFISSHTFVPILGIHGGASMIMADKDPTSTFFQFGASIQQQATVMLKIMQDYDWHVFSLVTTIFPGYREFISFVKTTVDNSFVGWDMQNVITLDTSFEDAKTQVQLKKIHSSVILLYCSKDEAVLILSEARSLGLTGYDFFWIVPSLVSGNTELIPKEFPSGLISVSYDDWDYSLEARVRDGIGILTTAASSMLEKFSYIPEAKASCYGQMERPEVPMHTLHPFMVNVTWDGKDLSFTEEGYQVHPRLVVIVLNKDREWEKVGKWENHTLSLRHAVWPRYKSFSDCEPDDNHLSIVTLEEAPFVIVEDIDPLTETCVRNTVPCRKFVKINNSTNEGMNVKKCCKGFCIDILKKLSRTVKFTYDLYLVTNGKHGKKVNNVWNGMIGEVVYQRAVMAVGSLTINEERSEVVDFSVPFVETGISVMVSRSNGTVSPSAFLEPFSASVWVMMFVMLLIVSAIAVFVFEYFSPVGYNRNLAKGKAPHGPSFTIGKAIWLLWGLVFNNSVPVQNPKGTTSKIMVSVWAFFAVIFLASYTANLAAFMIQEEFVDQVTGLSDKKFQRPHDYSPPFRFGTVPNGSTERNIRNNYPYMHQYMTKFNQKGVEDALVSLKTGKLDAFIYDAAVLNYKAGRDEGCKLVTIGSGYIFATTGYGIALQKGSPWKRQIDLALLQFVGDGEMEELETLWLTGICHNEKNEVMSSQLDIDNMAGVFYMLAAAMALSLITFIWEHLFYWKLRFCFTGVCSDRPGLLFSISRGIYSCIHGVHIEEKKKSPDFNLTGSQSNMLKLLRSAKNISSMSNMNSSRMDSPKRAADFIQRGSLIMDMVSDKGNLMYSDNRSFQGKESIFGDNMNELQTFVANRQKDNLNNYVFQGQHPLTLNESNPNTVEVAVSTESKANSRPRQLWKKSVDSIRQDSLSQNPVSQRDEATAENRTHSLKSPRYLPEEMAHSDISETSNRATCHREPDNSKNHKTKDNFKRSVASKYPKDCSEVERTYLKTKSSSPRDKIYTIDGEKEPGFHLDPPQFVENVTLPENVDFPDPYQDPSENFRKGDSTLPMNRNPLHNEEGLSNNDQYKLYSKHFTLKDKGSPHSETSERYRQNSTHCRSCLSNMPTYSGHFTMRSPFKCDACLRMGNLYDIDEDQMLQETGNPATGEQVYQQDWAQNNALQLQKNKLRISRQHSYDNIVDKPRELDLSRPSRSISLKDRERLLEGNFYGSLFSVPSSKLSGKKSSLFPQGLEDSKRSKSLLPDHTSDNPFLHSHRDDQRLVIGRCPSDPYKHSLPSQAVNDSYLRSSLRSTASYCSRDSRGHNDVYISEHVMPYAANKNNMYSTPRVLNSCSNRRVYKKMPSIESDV
experiment notes: Two electrode voltage clamp, Xenopus laevis oocytes expressing NR1/NR2A
Format: cell-based
run conditions: at 100 μM; read-out: 2A percent effect at the maximum tested concentration
Respond numerically; units are % and should not be typed.

# annotated cases, reported activity at 100 µM shown
In one line, give reported activity at 100 µM of the entry CCc1ccc(OCC2c3cc(OC)c(OC)cc3CCN2C(=O)c2ccccc2)cc1 (stereo not drawn) . 98

Tell us which activity at 100 µM value is on record for COc1cc2c(cc1OC)C(COc1ccc(OCc3ccccc3)cc1)N(C(=O)c1cccc(Cl)c1)CC2 (stereo not drawn) 95

// next item, activity at 100 µM requested
Identify measured activity at 100 µM associated with CSC1=NCCN1C(=O)c1ccc(C)cc1 78

---

measured on: NR1/NR2C (Homo sapiens, UniProt Q05586+Q14957)
Construct: expressed in transfected cells; host or cells: Xenopus laevis oocytes
experiment notes: Two electrode voltage clamp, Xenopus laevis oocytes expressing NR1/NR2C
Assay type: cell-based
run conditions: at 100 μM; read-out: 2C percent effect at the maximum tested concentration
Lab note: compare activity at 100 µM against 80%. Equal or greater, write YES. Smaller, write NO.

Example results:
For this compound, is measured activity at 100 µM 80% or higher? COc1ccc(OCC2c3cc(OC)c(OC)cc3CCN2C(=O)c2ccno2)cc1 (centres unmarked) [1180-5] YES

Hi, just wondering whether COc1ccc(OCC2c3cc(OC)c(OC)cc3CCN2C(=O)c2ccc(OC)cc2)cc1 (centres unmarked) [compound 1364] shows activity at 100 µM of 80% or higher. YES

Would you say COc1cc2c(cc1OC)C(COc1ccccc1OC)N(C(=O)c1cccc(Cl)c1)CC2 (centres unmarked) [1180-8] shows activity at 100 µM at minimum 80%? NO

As a next step, examine the compound that follows.
Determine whether measured activity at 100 µM meets or exceeds 80% for O=C(O)C1=C(NC(=O)c2ccc(I)cc2)SC2CCCC12 (centres unmarked) [compound 1419] YES

---

measured on: NR1/NR2D (Homo sapiens, UniProt O15399+Q05586)
experiment notes: Two electrode voltage clamp, Xenopus laevis oocytes expressing NR1/NR2D
run conditions: read-out: 2D percent effect at the maximum tested concentration, at 100 μM
Decide using activity at 100 µM: a value greater than or equal to 90% is criterion met, a smaller one is criterion not met.

See these solved cases before continuing.
Is reported activity at 100 µM greater than or equal to 90% here: COc1ccc(OCC2c3cc(OC)c(OC)cc3CCN2C(=O)c2cccnc2)cc1 (centres unmarked) criterion not met

Is it the case that C=C(OC)c1ccc(OCC2c3cc(OC)c(OC)cc3CCN2C(=O)c2ccc(OC)cc2)cc1 (centres unmarked) has activity at 100 µM reaching or exceeding 90%? criterion met

Record COc1ccc(C(=O)Nc2sc(C)cc2C(=O)O)cc1 ; criterion: activity at 100 µM no lower than 90%. Met? criterion not met

Please look at the following compound next.
Hello, I need to know if CC(C)(C)c1ccc(C(=O)Nc2scc(-c3ccc(Br)cc3)c2C(=O)O)cc1 has measured activity at 100 µM not below 90%. Thanks! criterion met

---

measured on: NR1/NR2B (Homo sapiens, UniProt Q05586+Q13224)
Sequence (Q13224 27-1484, species assumed, other chains not shown): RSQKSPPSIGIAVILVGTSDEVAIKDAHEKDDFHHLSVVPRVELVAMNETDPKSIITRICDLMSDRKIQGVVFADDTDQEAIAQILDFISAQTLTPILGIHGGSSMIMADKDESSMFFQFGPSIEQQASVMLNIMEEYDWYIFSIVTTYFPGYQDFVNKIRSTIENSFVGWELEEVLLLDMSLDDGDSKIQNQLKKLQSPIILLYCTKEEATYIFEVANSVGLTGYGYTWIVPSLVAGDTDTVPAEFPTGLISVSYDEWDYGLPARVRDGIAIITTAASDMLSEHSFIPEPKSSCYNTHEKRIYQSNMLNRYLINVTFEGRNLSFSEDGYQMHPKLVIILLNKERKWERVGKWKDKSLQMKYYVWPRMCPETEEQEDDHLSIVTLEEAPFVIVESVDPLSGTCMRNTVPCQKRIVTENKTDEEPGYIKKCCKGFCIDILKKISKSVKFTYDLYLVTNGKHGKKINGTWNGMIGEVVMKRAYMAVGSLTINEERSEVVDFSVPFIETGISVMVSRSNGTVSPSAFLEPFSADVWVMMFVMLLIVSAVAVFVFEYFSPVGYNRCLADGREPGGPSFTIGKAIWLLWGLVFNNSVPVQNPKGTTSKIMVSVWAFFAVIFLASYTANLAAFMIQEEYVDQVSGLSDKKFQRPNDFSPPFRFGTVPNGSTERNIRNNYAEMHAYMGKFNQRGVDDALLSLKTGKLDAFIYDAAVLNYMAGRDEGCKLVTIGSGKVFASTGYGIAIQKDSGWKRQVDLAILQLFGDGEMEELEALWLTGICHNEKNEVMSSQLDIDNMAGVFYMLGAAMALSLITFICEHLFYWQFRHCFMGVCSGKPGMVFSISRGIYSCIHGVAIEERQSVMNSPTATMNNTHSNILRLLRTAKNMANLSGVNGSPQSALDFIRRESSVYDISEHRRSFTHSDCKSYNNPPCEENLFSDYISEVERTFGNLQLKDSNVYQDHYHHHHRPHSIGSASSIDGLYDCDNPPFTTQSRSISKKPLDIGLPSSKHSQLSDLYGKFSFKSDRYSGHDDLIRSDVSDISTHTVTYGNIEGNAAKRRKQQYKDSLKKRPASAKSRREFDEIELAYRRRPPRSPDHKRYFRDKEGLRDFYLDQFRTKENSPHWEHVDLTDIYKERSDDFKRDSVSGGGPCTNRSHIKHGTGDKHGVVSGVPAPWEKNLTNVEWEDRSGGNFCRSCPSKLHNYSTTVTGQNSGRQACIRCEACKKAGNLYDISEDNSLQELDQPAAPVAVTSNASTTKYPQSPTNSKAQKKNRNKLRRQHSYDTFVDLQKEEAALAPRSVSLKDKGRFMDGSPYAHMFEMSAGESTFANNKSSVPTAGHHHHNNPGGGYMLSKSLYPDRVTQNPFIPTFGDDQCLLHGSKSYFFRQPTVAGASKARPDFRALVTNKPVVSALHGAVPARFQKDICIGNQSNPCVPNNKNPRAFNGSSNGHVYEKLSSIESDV
experiment notes: Two electrode voltage clamp, Xenopus laevis oocytes expressing NR1/NR2B
run conditions: fitted to composite concentration-effect data; Max 0 = inhibition; read-out: 2B IC50
parameter measured: pIC50
On this scale, pIC50 is minus log10 of a concentration expressed in M (mol/L).

Example molecules with recorded pIC50:
Provide pIC50, system NR1/NR2B (Homo sapiens, UniProt Q05586+Q13224), entry CSC1=NCCN1C(=O)c1ccc(C(C)(C)C)cc1 [compound 1343] 3.86

Print NR1/NR2B (Homo sapiens, UniProt Q05586+Q13224) pIC50 for COc1ccc(-c2csc(NC(=O)c3ccc(C(C)(C)C)cc3)c2C(=O)O)cc1 [compound 1424] . 4.72

Consider the additional molecule presented here.
Fetch value of pIC50 on NR1/NR2B (Homo sapiens, UniProt Q05586+Q13224) for CC(C)(C)c1ccc(CSc2nc(N)cc(O)n2)cc1 [compound 1563] . 4.62

---

measured on: NR1/NR2C (Homo sapiens, UniProt Q05586+Q14957)
Construct: expressed in transfected cells; host or cells: Xenopus laevis oocytes
experiment notes: Two electrode voltage clamp, Xenopus laevis oocytes expressing NR1/NR2C
Type: cell-based
run conditions: at 100 μM; read-out: 2C percent effect at the maximum tested concentration
parameter measured: activity at 100 µM (%)
Only the number, expressed in %, is required.

Identify measured activity at 100 µM corresponding to COc1ccc(OCC2c3cc(OC)c(OC)cc3CCN2C(=O)N2CCOCC2)cc1 (stereo not drawn) 87

Annotate the compound COc1cc2c(cc1OC)C(COc1ccc(F)cc1)N(C(=O)c1cccc(F)c1)CC2 (stereo not drawn) with its measured activity at 100 µM. 71

Give recorded activity at 100 µM. COc1ccc(OCC2c3cc(OC)c(OC)cc3CCN2C(=S)Nc2cccc(Br)c2)cc1 (stereo not drawn) 96

Output measured activity at 100 µM for this item: COc1ccc(OCC2c3cc(OC)c(OC)cc3CCN2C(=S)Nc2cccc(F)c2)cc1 (stereo not drawn) 99

Provide activity at 100 µM value for the following compound: C=C(OC)c1ccc(OCC2c3cc(OC)c(OC)cc3CCN2C(=O)c2ccc(OC)cc2)cc1 (stereo not drawn) 104

Others:
Give recorded activity at 100 µM. COC(=O)c1ccc(OCC2c3cc(OC)c(OC)cc3CCN2C(=O)c2cccc(Cl)c2)cc1 (stereo not drawn) 102

Give me measured activity at 100 µM, please, for this compound: CCOC(=O)c1cc(C)sc1NC(=O)c1ccc(C(C)(C)C)cc1 96

Fill in reported activity at 100 µM for this entry: Cc1ccc(CSc2nccn2C(=O)c2ccc(C(C)(C)C)cc2)cc1 104

Answer with reported activity at 100 µM of COc1ccc(C(=O)Nc2sc(C)cc2C(=O)O)cc1 94

---

measured on: NR1/NR2D (Homo sapiens, UniProt O15399+Q05586)
experiment notes: Two electrode voltage clamp, Xenopus laevis oocytes expressing NR1/NR2D
run conditions: read-out: 2D percent effect at the maximum tested concentration, at 100 μM
# key: entry, value: activity at 100 µM
Give just the number in %; leave the unit off.

Example cases with answers are listed next.
Answer with the recorded activity at 100 µM for the molecule listed here: CCOC(=O)c1cc(C)sc1NC(=O)c1ccc(C(C)(C)C)cc1 86

Dear colleague, please send me the reported activity at 100 µM for COc1ccc(OCC2c3cc(OC)c(OC)cc3CCN2C(=O)c2ccccn2)cc1 (stereo not shown) when you can. 84

Let me know recorded activity at 100 µM for COc1ccc(OCC2c3cc(OC)c(OC)cc3CCN2C(=O)c2ccc([N+](=O)[O-])cc2)cc1 (stereo not shown) , thanks. 95

Provide activity at 100 µM value for the following molecule: COc1ccc(OCC2c3cc(OC)c(OC)cc3CCN2C(=O)c2ccc(C)cc2)cc1 (stereo not shown) 100

Please list activity at 100 µM recorded for the molecule O=C(O)C1=C(NC(=O)c2ccc(Br)cc2)SC2CCCC12 (stereo not shown) 77

Continuing:
Identify measured activity at 100 µM corresponding to COc1ccc(OCC2c3cc(OC)c(OC)cc3CCN2C(=S)Nc2ccccc2)cc1 (stereo not shown) 79

For CC(C)(C)c1ccc(NC(=O)C2CC=CCC2C(=O)O)cc1 (stereo not shown) , write its activity at 100 µM. 85

Provide only the value of recorded activity at 100 µM for O=C(O)C1=C(NC(=O)c2ccc(I)cc2)SC2CCCC12 (stereo not shown) 90

Give the value of activity at 100 µM reported for the following: COc1cc2c(cc1OC)C(COc1ccc(SC)cc1)N(C(=O)c1ccccc1)CC2 (stereo not shown) 103

Quickly give me recorded activity at 100 µM for CC(C)(C)c1ccc(C(=O)Nc2ccccc2C(=O)O)cc1 113
